target_or_system: T1, human CD112R on Jurkat CD112R effector cells (human, UniProt Q6DKI7 1-326)
T1 sequence (looked up): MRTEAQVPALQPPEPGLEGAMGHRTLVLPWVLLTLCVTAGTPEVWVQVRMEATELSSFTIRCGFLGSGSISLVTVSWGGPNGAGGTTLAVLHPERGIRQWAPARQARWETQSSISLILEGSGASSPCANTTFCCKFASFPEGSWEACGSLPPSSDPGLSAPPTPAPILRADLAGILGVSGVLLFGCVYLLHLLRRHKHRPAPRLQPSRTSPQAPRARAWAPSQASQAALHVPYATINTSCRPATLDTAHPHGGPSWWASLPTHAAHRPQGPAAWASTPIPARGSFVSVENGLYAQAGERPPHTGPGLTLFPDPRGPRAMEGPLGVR
assay_notes: cell-based or functional assay
recorded_metric: Relative activity (%), EC50 Ref/EC50 antibody
Give the value, in units of %, as a plain number.

| binder | recorded_result |
| --- | --- |
| Chi-71 (antibody, V domains shown, chimeric) VH: DVQLVESGGGLVKLGGSLKLSCVASGFTFSSYHMSWIRQTPEKRLELVAAINSNDINTYYLDTVKGRFTISRDIAKNTLHLQMSSLKSEDTALYYCARHEDYYGFAMDYWGQGTSVTVSS VL: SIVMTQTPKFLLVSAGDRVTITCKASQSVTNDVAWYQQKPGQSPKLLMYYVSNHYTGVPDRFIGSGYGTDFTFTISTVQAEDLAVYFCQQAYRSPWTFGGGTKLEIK | 1470 |
| Chi-54 (antibody, V domains shown, chimeric) VH: DVKLVESGGGLVKLGGSLKLSCAASGFTFSSYHMSWIRQTPEKRLELVAAINSNGINTYYLDTVKGRFTISRDNAKNTLYLQMSSLKSEDTALYYCARHEDYYGFAMDYWGQGTSVTVSS VL: SIVMTQTPKFLLVSAGDRVTITCKASQSVSNDVAWYQQKPGQSPKLLMYYVSNRFTGVPDRFTGSGYGTDFTFTINTVQAEDLAVYFCQQAYRSPWTFGGGTKLEIK | 4210 |

## Task Determine from records and report Relative activity (%), EC50 Ref/EC50 antibody for Chi-46 (antibody, V domains shown, chimeric) VH: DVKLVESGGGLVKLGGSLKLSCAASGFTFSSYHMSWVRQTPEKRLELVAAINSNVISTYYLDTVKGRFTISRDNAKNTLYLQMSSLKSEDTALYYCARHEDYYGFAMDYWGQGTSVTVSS VL: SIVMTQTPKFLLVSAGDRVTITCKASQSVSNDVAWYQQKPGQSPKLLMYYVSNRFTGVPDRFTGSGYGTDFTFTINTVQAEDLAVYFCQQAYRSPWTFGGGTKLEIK
## Result 4610
